tested on: NCI-H522 lung; assay: NCI-60 one-dose screen, 48 h (100 = growth as untreated, 0 = no growth, -100 = all killed); conditions: 10 µM unless noted
The panel holds about 83,000 compounds, 20% with a hit somewhere; the sample as a whole holds those more often. Active and inactive are the calls of the source. How the source made its calls: active means growth percent below 10; inactive means the rest.
Recorded Endpoint: growth

Worked examples follow.
COc1ccc(CNc2c3ccccc3nc3ccccc23)cc1OC
18.2% (inactive)
CN1CCN(CC(=O)N(C)c2ccc(N=C(c3ccccc3)c3c(O)[nH]c4ccc([N+](=O)[O-])cc34)cc2)CC1
86.8% (inactive)
Nc1nc(=O)n([C@H]2CC=C(CO)O2)cc1F
80.7% (inactive)
CC1=C2[C@@H](CC1)[C@]1(C)O[C@@](C(C)C)(C[C@H]1OC(=O)CO)[C@H]2OC(=O)CCCc1ccccc1
45.1% (inactive)
COc1nc2ccccc2cc1/C=[N+](\[O-])c1ccccc1
82.7% (inactive)

Entry c1ccc(-c2cn3nc(-c4c[nH]c5ccccc45)sc3n2)cc1 : reported growth = ?
61.2% (inactive)

Ok, now CN1CCN(CCCNC(=O)c2c3c(n4ccccc24)C(=O)c2ncccc2C3=O)CC1
-43.4% (active)

---

test system: HOP-62 NSCLC; assay: NCI-60 one-dose screen, 48 h; details: 10 µM unless noted
Compounds without any hit were thinned out: in the full panel of roughly 83,000, 20% have a hit. Calls of active or inactive are those of the source. The calls were made as follows: active = growth percent below 10; inactive = the rest.
Classes to choose from: TRUE = active, FALSE = inactive

As a guide, the following entries are already answered.
CN1CCN(Cc2ccc(NC(=O)c3cncc(C#Cc4c(N)ncc5c(F)cccc45)c3)cc2C(F)(F)F)CC1
TRUE
CCN(CC)CCCC(Nc1c2ccc(Cl)cc2nc2ccc(OC)cc12)c1ccncc1 (centres undefined)
FALSE
CCCC[N+]1(C)CCN=C1Cc1ccccc1 (centres undefined)
FALSE
CNC(=O)c1cc(Oc2cccc3nc(NC(=O)Nc4ccc(F)cc4F)ccc23)ccn1
TRUE
O=c1cc(-c2nccc3c2[nH]c2ccccc23)c2cc(Cl)ccc2o1
FALSE

What call does the record list for CCN(CC)CCCNC(=O)c1c2c(n3ccccc13)C(=O)c1ncccc1C2=O ?
TRUE

Ok, now COC12C=C/C(=C(/C(=O)OCc3ccccn3)C(=O)CCCCCCCCC3(OC)C=C/C(=C(/C(=O)OCc4ccccn4)C(=O)CCCCCCCC1)O3)O2
FALSE

Ok, now COc1ccccc1-c1nc2ccc3[nH]ncc3c2c2c1CCCC2
FALSE

Ok, now Cc1csc(Nc2nc(-c3cccc(Cl)c3)nc(C(Cl)(Cl)Cl)n2)n1
FALSE

---

system: NCI-H522 lung; experiment: NCI-60 one-dose screen, 48 h (100 = growth as untreated, 0 = no growth, -100 = all killed); conditions: 10 µM unless noted
This is part of a sample that, as a whole, favours compounds with a hit. Of some 83,000 tested, about 20% had one in any assay.
Label 1 for high-side growth (at or above 50%) and -1 for low-side growth (below it).

As a guide, the following entries are already answered.
CCOC(=O)CC1C(CNC(=O)NC)OC(n2cnc3c(NC(=O)Nc4ccccc4)ncnc32)C1O[Si](C)(C)C(C)(C)C (configuration not stated)
1
Fc1ccc(/C=C/c2cc(/C=C/c3ccc(F)cc3)n(-c3cc(F)cc(F)c3)n2)cc1
1
COc1ccc(-c2cn(Cc3ccc4c(Br)cc(Br)c(O)c4n3)nn2)cc1
1
CCOC(=O)CC1CSC(N/N=C/c2ccc(O)cc2)=N1 (configuration not stated)
1
CCOC(=O)C1=C(c2ccccc2)N=C2SC=C(c3cccc([N+](=O)[O-])c3)N2C1c1ccc(O)cc1 (configuration not stated)
1

Now examine the next entry.
State whether the measured growth reaches 50%, counting equality as reaching it, for CN1CCN(Cc2ccc(NC(=O)c3cncc(C#Cc4c(N)ncc5ccccc45)c3)cc2C(F)(F)F)CC1
-1
